Task for the reader: assign each of the following molecules its reported GI50.
# Test system: UO-31
# Experiment summary: NCI tumour cell line growth inhibition, 48 h
Activity calls are given as the source filed them. Rule as the data show it: active = GI50 up to about 1.1 µM and inactive = higher.

INSERT INTO results (molecule, measurement) VALUES
  ('CC1(C)C(=O)C=CC2(C)C1CC(O)C1(C)C2CCC2(C)C(c3ccoc3)OC(=O)C3OC321 (centres undefined)', '11.4 µM (inactive)'),
  ('COC(=O)C1(OC(=O)Sc2ccccc2)CCN(C)CC1', '3.79 µM (inactive)'),
  ('O=C1/C(=C/c2ccc(Cl)cc2)NC(=S)N1CN1CCOCC1', '> 100 µM (inactive)'),
  ('O=C(Nc1ccn(C2CC(O)C(COC(c3ccccc3)(c3ccccc3)c3ccccc3)O2)c(=O)n1)c1ccccc1 (centres undefined)', '6.81 µM (inactive)'),
  ('O=c1c(Sc2ncccn2)c(Sc2ncccn2)cnn1CCl', '1.7 µM (inactive)'),
  ('CC1(O)C=CC(=O)C=C1', '36.6 µM (inactive)');

For every item below, please supply its GI50.
1. COC(=O)c1c[nH]c2nc(N3CCOCC3)nn2c1=O
2. c1ccc(N/N=C2\NN=C(c3ccccc3)CS2)cc1
3. CCCCCCCCCCCC(=O)C1=C(O)CCC(O)C1=O (centres undefined)
4. COc1ccc2c(-c3ccc(O)cc3)c(Oc3ccc(Cl)cc3)c(=O)oc2c1
5. COC(=O)C1=C(O)c2cc3c(cc2[C@H](c2cc(OC)c(OC)c(OC)c2)C1C(=O)OC)OCO3 (some centres undefined)
6. c1cc(-c2ccc(-c3ccc(C4=NC5CCCCC5N4)cc3)o2)ccc1C1=NC2CCCCC2N1 (centres undefined)
7. N/N=C1/C(=O)N(c2ccc(Cl)cc2)C(=O)C(=O)C1c1nc2ccccc2s1 (centres undefined)

["> 100 µM (inactive)", "12.9 µM (inactive)", "19.7 µM (inactive)", "1.14 µM (inactive)", "42.3 µM (inactive)", "2.99 µM (inactive)", "> 100 µM (inactive)"]
